# Test system: potato tubers
# TEST_NAME: Sprout inhibition by T2N and its metabolites, sprout fresh weight 21 days after treatment at 19° C.
# Format: in vivo
# APPLIED_CONDITIONS: 0.75 mmol/kg tubers, 24 h treatment
REPORTED_METRIC: % Inhibition of sprouting (%)

- COMPOUND: "CCCCCC/C=C/CO [trans-2-nonen-1-ol]"
  REPORTED_METRIC: "% Inhibition of sprouting"
  UNIT_DESCRIPTOR: "%"
  RESULT_NUMBER: 31.6
- COMPOUND: "CCCCCC/C=C/C=O [trans-2-nonenal, reference compound]"
  REPORTED_METRIC: "% Inhibition of sprouting"
  UNIT_DESCRIPTOR: "%"
  RESULT_NUMBER: 100
- COMPOUND: "CCCCCCCCCO"
  REPORTED_METRIC: "% Inhibition of sprouting"
  UNIT_DESCRIPTOR: "%"
  RESULT_NUMBER: 50.9
- COMPOUND: "CCCCCCCCC=O"
  REPORTED_METRIC: "% Inhibition of sprouting"
  UNIT_DESCRIPTOR: "%"
  RESULT_NUMBER: 17.0
